Overview of recorded viscosity for various compounds
PROTOCOL DESCRIPTION: xn = mol fraction of the nth substance listed
TEST SETTINGS: 288.15 K; 100 kPa; Liquid; Cone and plate viscometry; x1 = 0.499
TEST READOUT: viscosity (mPa·s)

[[record]]
compound = "CCCCCCn1cc[n+](C)c1C.O=[N+]([O-])c1cn[n-]c1 [1-hexyl-2,3-dimethylimidazolium 4-nitropyrazolide] + CCCCCCCC[P+](CC)(CC)CC.O=S(=O)([N-]S(=O)(=O)C(F)(F)F)C(F)(F)F"
value_measured = 423

[[record]]
compound = "CCCCCCCCCC[P+](CC)(CC)CC.O=[N+]([O-])c1cn[n-]c1 [decyltriethylphosphonium 4-nitropyrazolide] + CC[P+](CC)(CC)COCCOC.O=S(=O)([N-]S(=O)(=O)C(F)(F)F)C(F)(F)F"
value_measured = 174

